- assay-procedure: clinical
- measurement-context: male, human, plasma, oral, 450 mg
measured-endpoint: Cmax
Enter the number, and then the unit.

Req: What measured Cmax goes with O=C(O)CNC(=O)c1ncc(-c2cccc(Cl)c2)cc1O ?
Resp: 45300 ng/mL

###

- assay-procedure: Phase 1 oral iron interaction study, Cohort 3 (fasting): dried ferrous sulfate slow release
- Format: in vivo, human
- measurement-context: male, human, plasma, oral, 150 mg; read-out: Cmax, LS geometric mean
measured-endpoint: Cmax (ng/mL)
Quick reminder: number only, in ng/mL, skip the unit.

Req: Which value of Cmax has been reported for O=C(O)CNC(=O)c1ncc(-c2cccc(Cl)c2)cc1O in the records?
Resp: 26500

Ref: patent US20230263786A1
